Data origin, for the record: paper PMC9927256

Target: Rv0792c R49A R49A (Mycobacterium tuberculosis)
Sequence: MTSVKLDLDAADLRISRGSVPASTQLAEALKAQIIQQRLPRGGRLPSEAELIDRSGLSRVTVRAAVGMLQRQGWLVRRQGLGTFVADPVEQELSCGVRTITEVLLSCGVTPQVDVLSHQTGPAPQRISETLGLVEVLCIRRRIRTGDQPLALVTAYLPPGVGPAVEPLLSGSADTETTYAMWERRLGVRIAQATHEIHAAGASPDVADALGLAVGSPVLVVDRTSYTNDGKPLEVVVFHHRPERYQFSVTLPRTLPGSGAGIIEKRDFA
Assay: ALISA (plate-immobilized protein)
ATTRIBUTE MEASURED: Kd (nM)
Hi! Could you send only the number? It should be in nM, unit omitted.

Per the record, TCTAGTCATTCGTCATAATCCCATCTGTTTCTTCCTCCTTCCGT [Rv0792c_2 aptamer (also Rv0729c_2)] has Kd of 74

* * *

Biological target: Rv0792c G80D G80D (Mycobacterium tuberculosis) (UniProt O86331)
Sequence: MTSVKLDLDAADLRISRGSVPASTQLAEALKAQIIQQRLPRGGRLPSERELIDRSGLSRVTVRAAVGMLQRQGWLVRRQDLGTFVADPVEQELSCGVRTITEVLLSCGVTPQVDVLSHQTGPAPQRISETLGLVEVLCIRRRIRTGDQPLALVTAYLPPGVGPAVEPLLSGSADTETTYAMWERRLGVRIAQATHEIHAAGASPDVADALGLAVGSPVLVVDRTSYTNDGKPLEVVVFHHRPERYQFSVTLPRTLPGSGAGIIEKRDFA
Assay: ALISA (plate-immobilized protein)
ATTRIBUTE MEASURED: pKd
Field pKd (float): negative decimal logarithm of the concentration in molar.

Per the record, TCTAGTCATTCGTCATAATCCCATCTGTTTCTTCCTCCTTCCGT [Rv0792c_2 aptamer (also Rv0729c_2)] has pKd of 6.92
